Tested on: HCT-116
ASSAY_METHOD_TEXT: Cytotoxicity against human HCT116 cells assessed as cell death at 10 uM after 48 hrs by MTT assay relative to control
Assay type: functional
Respond with fulfilled for Activity values of 40% and above, not fulfilled for values below.

{"columns": ["MOLECULE", "CLASS"],
 "data": [
  ["CCOC(=O)C1=C(C)NC(=S)NC1c1cc(/C=N/NC(=O)Nc2ccc(Cl)cc2)c(O)c(C(C)(C)C)c1 (stereo not drawn)", "fulfilled"],
  ["CCOC(=O)C1=C(C)NC(=O)NC1c1cc(C)c(O)c(/C=N/NC(N)=S)c1 (stereo not drawn)", "not fulfilled"],
  ["CCOC(=O)C1=C(C)NC(=O)NC1c1cc(C)c(O)c(/C=N/NC(=S)NC)c1 (stereo not drawn)", "not fulfilled"],
  ["CCOC(=O)C1=C(C)NC(=O)NC1c1cc(/C=N/NC(=S)Nc2ccccc2)c(O)c(C(C)(C)C)c1 (stereo not drawn)", "fulfilled"],
  ["CCOC(=O)C1=C(C)NC(=O)NC1c1cc(/C=N/NC(=O)Nc2cccc(OC)c2)c(O)c(C(C)(C)C)c1 (stereo not drawn)", "not fulfilled"],
  ["CCOC(=O)C1=C(C)NC(=O)NC1c1cc(/C=N/NC(=S)Nc2ccc(Cl)cc2)c(O)c(C(C)(C)C)c1 (stereo not drawn)", "fulfilled"],
  ["CCOC(=O)C1=C(C)NC(=S)NC1c1cc(/C=N/NC(=S)Nc2ccc(Cl)cc2)c(O)c(C(C)(C)C)c1 (stereo not drawn)", "fulfilled"],
  ["CCOC(=O)C1=C(C)NC(=O)NC1c1cc(/C=N/NC(=S)NC)c(O)c(C(C)(C)C)c1 (stereo not drawn)", "not fulfilled"]
]}

----------
Reported values of inhibition for individual entries
SYSTEM: DNA ligase 1 (Homo sapiens, UniProt P18858)
Sequence (P18858 whole entry): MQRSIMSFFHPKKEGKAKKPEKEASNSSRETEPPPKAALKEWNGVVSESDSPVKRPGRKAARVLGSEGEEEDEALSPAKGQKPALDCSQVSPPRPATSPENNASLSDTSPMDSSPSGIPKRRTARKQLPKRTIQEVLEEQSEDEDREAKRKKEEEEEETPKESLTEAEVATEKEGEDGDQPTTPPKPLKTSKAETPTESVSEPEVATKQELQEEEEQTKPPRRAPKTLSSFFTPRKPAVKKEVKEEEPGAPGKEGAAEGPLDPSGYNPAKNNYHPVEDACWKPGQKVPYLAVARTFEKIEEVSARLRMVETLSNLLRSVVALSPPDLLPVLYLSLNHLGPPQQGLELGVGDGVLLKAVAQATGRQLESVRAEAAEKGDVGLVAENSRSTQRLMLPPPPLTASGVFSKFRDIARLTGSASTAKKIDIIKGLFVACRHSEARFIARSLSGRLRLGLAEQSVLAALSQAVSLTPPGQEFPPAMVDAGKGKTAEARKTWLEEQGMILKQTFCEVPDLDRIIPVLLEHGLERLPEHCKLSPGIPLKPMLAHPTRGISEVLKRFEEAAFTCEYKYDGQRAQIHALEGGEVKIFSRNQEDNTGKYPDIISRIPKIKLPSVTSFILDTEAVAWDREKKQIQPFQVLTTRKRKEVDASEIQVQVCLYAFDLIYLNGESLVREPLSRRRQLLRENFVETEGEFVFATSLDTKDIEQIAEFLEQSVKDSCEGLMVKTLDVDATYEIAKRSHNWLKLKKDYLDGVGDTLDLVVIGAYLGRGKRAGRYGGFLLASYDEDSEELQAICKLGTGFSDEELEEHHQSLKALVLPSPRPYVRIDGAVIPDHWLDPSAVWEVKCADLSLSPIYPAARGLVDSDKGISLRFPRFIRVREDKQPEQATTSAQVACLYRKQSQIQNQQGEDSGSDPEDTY
ASSAY_METHOD_TEXT: Inhibition of human DNA ligase 1 expressed in Escherichia coli BL21(DE3)RP cells assessed as reduction in fluorescently labelled ds nicked DNA substrate ligation at 100 uM after 30 mins by urea gel based imaging method relative to control
PARAMETER: inhibition

{"columns": ["COMPOUND", "SYSTEM", "RESULT"],
 "data": [
  ["CCOC(=O)C1=C(C)NC(=O)NC1c1cc(C)c(O)c(/C=N/NC(N)=S)c1 (stereo not drawn)", "DNA ligase 1 (Homo sapiens, UniProt P18858)", "84.1%"],
  ["CCOC(=O)C1=C(C)NC(=O)NC1c1cc(/C=N/NC(=O)Nc2ccc(Br)cc2)c(O)c(C(C)(C)C)c1 (stereo not drawn)", "DNA ligase 1 (Homo sapiens, UniProt P18858)", "84%"],
  ["CCOC(=O)C1=C(C)NC(=S)NC1c1cc(/C=N/NC(=S)Nc2ccc(C)cc2)c(O)c(C(C)(C)C)c1 (stereo not drawn)", "DNA ligase 1 (Homo sapiens, UniProt P18858)", "68.9%"],
  ["CCOC(=O)C1=C(C)NC(=O)NC1c1cc(C)c(O)c(/C=N/NC(N)=O)c1 (stereo not drawn)", "DNA ligase 1 (Homo sapiens, UniProt P18858)", "64.3%"],
  ["CCOC(=O)C1=C(C)NC(=O)NC1c1cc(/C=N/NC(N)=O)c(O)c(C(C)(C)C)c1 (stereo not drawn)", "DNA ligase 1 (Homo sapiens, UniProt P18858)", "77.6%"],
  ["CCOC(=O)C1=C(C)NC(=S)NC1c1cc(/C=N/NC(=S)Nc2ccccc2)c(O)c(C(C)(C)C)c1 (stereo not drawn)", "DNA ligase 1 (Homo sapiens, UniProt P18858)", "66.8%"],
  ["CCOC(=O)C1=C(C)NC(=S)NC1c1cc(/C=N/NC(=S)Nc2ccc(Cl)cc2)c(O)c(C(C)(C)C)c1 (stereo not drawn)", "DNA ligase 1 (Homo sapiens, UniProt P18858)", "79.4%"],
  ["CCOC(=O)C1=C(C)NC(=O)NC1c1cc(/C=N/NC(=O)Nc2ccc(F)cc2)c(O)c(C(C)(C)C)c1 (stereo not drawn)", "DNA ligase 1 (Homo sapiens, UniProt P18858)", "84.7%"]
]}

----------
Tested on: HepG2
ASSAY_METHOD_TEXT: Cytotoxicity against human HepG2 cells assessed as decrease in cell viability after 48 hrs by MTT assay
Type: functional, cell-based
STATED_CONDITIONS: HepG2, 48 h

{"columns": ["MOLECULE", "UNIT_INFO", "IC50"],
 "data": [
  ["CCOC(=O)C1=C(C)NC(=O)NC1c1cc(/C=N/NC(=O)Nc2cccc(OC)c2)c(O)c(C(C)(C)C)c1 (stereo unspecified)", "µM", 10.6]
]}

----------
Species: Mesocricetus auratus
ASSAY_METHOD_TEXT: Metabolic stability in hamster liver microsomes assessed as parent compound remaining at 1 uM after 60 mins in presence of NADPH by LC-MS/MS analysis
STATED_CONDITIONS: golden Syrian hamster
PARAMETER: remaining at 1 h, 1 µM

{"columns": ["COMPOUND", "RESULT"],
 "data": [
  ["CCOC(=O)C1=C(C)NC(=O)NC1c1cc(/C=N/NC(=O)Nc2cccc(OC)c2)c(O)c(C(C)(C)C)c1 (stereo unspecified)", "12.9%"]
]}

----------
Species on record: Mesocricetus auratus
ASSAY_METHOD_TEXT: Half life in hamster liver microsomes at 1 uM by LC-MS/MS analysis
STATED_CONDITIONS: golden Syrian hamster

{"columns": ["COMPOUND", "half-life at 1 µM"],
 "data": [
  ["CCOC(=O)C1=C(C)NC(=O)NC1c1cc(/C=N/NC(=O)Nc2cccc(OC)c2)c(O)c(C(C)(C)C)c1 (stereo unspecified)", "20.8 min"]
]}

----------
ASSAY_METHOD_TEXT: Protein binding in hamster plasma at 10 uM at pH 7.4 incubated for 30 mins measured after 10 hrs by LC-MS/MS based equilibrium dialysis method
Format: ADME, cell-free, Cricetulus griseus
STATED_CONDITIONS: chinese hamster, read-out: PPB

{"columns": ["COMPOUND", "fraction unbound at 10 h, 10 µM"],
 "data": [
  ["CCOC(=O)C1=C(C)NC(=O)NC1c1cc(/C=N/NC(=O)Nc2cccc(OC)c2)c(O)c(C(C)(C)C)c1 (stereo unspecified)", 0.0098]
]}

----------
As shown below, each of these compounds has a reported ligation value.
SYSTEM: DNA ligase 1 (Homo sapiens)
ASSAY_METHOD_TEXT: Residual activity of human DNA ligase 1 expressed in Escherichia coli BL21(DE3)RP cells assessed as DNA ligation at 100 uM using fluorescently labelled ds nicked DNA as substrate after 30 mins by urea gel based imaging method relative to control
PARAMETER: ligation (%)

{"columns": ["COMPOUND", "UNIT_INFO", "QUANTITATIVE_RESULT"],
 "data": [
  ["CCOC(=O)C1=C(C)NC(=O)NC1c1cc(C=O)c(O)c(C(C)(C)C)c1 (centres undefined)", "%", 26.4],
  ["CCOC(=O)C1=C(C)NC(=S)NC1c1cc(/C=N/NC(=S)Nc2ccc(Cl)cc2)c(O)c(C(C)(C)C)c1 (centres undefined)", "%", 20.6],
  ["CCOC(=O)C1=C(C)NC(=S)NC1c1cc(C)c(O)c(/C=N/NC(=O)Nc2ccc(Cl)cc2)c1 (centres undefined)", "%", 13.4],
  ["CCOC(=O)C1=C(C)NC(=O)NC1c1cc(/C=N/NC(=O)Nc2cccc(OC)c2)c(O)c(C(C)(C)C)c1 (centres undefined)", "%", 17.4]
]}

----------
Test system: HCT-116
ASSAY_METHOD_TEXT: Cytotoxicity against human HCT116 cells assessed as cell death at 10 uM after 48 hrs by MTT assay relative to control
Assay type: functional

{"columns": ["COMPOUND", "Activity, %"],
 "data": [
  ["CCOC(=O)C1=C(C)NC(=O)NC1c1cc(/C=N/NC(N)=S)c(O)c(C(C)(C)C)c1 (stereo unspecified)", 7.8],
  ["CCOC(=O)C1=C(C)NC(=S)NC1c1cc(/C=N/NC(=O)Nc2ccccc2)c(O)c(C(C)(C)C)c1 (stereo unspecified)", 17.9],
  ["CCOC(=O)C1=C(C)NC(=O)NC1c1cc(/C=N/NC(N)=O)c(O)c(C(C)(C)C)c1 (stereo unspecified)", 2.6],
  ["CCOC(=O)C1=C(C)NC(=O)NC1c1cc(C=O)c(O)c(C(C)(C)C)c1 (stereo unspecified)", 1.8],
  ["CCOC(=O)C1=C(C)NC(=O)NC1c1cc(C)c(O)c(C=O)c1 (stereo unspecified)", 5.7],
  ["CCOC(=O)C1=C(C)NC(=O)NC1c1cc(/C=N/NC(=O)Nc2ccc(Br)cc2)c(O)c(C(C)(C)C)c1 (stereo unspecified)", 57.2],
  ["CCOC(=O)C1=C(C)NC(=S)NC1c1cc(/C=N/NC(=S)Nc2ccc(C)cc2)c(O)c(C(C)(C)C)c1 (stereo unspecified)", 50.5],
  ["CCOC(=O)C1=C(C)NC(=O)NC1c1cc(/C=N/NC(=O)Nc2ccc(F)cc2)c(O)c(C(C)(C)C)c1 (stereo unspecified)", 17.5],
  ["CCOC(=O)C1=C(C)NC(=O)NC1c1cc(C)c(O)c(/C=N/NC(N)=O)c1 (stereo unspecified)", 4.3],
  ["CCOC(=O)C1=C(C)NC(=S)NC1c1cc(C)c(O)c(/C=N/NC(=O)Nc2ccc(Cl)cc2)c1 (stereo unspecified)", 50.8],
  ["CCOC(=O)C1=C(C)NC(=S)NC1c1cc(/C=N/NC(=S)Nc2ccccc2)c(O)c(C(C)(C)C)c1 (stereo unspecified)", 49.9]
]}
